# target-system: DGKα (Homo sapiens, UniProt P23743)
# Construct: His; purchased Signal Chem D21-10BH
# Sequence (P23743 whole entry): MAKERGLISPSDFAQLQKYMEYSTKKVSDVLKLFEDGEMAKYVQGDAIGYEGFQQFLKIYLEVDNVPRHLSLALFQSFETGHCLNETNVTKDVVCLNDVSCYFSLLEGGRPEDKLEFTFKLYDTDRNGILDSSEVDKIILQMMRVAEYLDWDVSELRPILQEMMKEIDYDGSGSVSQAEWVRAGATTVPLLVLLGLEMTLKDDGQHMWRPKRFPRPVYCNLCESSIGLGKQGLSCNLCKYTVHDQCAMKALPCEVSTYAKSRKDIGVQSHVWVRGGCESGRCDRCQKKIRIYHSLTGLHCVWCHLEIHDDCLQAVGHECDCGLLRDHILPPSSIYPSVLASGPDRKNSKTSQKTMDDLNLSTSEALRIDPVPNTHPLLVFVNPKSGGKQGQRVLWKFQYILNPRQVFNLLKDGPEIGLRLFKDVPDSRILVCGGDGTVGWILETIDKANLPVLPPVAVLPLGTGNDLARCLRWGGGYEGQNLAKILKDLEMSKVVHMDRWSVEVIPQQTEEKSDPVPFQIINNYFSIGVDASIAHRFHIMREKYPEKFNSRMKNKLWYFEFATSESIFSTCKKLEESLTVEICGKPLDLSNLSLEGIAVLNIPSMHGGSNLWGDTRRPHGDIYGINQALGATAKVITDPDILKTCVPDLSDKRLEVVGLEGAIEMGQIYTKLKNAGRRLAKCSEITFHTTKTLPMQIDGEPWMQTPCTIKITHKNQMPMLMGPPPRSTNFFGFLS
# assay-info: In vitro DGKα inhibition assay (ADP-Glo)
# Assay type: biochemical
# conditions: His-tagged human recombinant enzyme, 0.1 nM DGKα, 50 μM ATP, 20 μM DLG, 90 minute incubation
Overview of recorded IC50 for various compounds

Here is how some compounds turned out for IC50.
CCN1CCC2(CCCN(c3c(/C=C(\F)c4ccn(-c5ccnnc5)n4)ccc(Oc4ccccc4)c3C(F)(F)F)C2)CC1 :: 20 to 200 nM
F/C(=C\c1ccc(Oc2ccccc2)c(C(F)(F)F)c1N1CCCC2(CCN(CC3CC3)CC2)C1)c1ccn(-c2ccnnc2)n1 :: 20 to 200 nM

For the compound shown here, "NC[C@@H]1CCCN(c2c(/C=C(\F)c3csc(-c4ccnnc4)n3)ccc(Oc3ccccc3F)c2C(F)(F)F)C1" , give the reported IC50.
≤ 20 nM

Entry to check: "F/C(=C\c1ccc(Oc2ccccn2)c(C(F)(F)F)c1N1CCCC2(CCN(CC3CC3)CC2)C1)c1ccn(-c2ccnnc2)n1"
≤ 20 nM

----------
# target-system: DGKα (Homo sapiens)
# Construct: His
# assay-info: In vitro DGKα inhibition assay (ADP-Glo)
# conditions: His-tagged human recombinant enzyme, 0.1 nM DGKα, 50 μM ATP, 20 μM DLG, 90 minute incubation
pIC50: −log10 of the molar value.
# key: entry, value: pIC50

// worked examples, pIC50 included
F/C(=C\c1ccc(Oc2cccc(F)c2F)c(C(F)(F)F)c1N1CCCC2(CN(CC3CC3)C2)C1)c1ccn(-c2ccnnc2)n1 :: ≥ 7.70
F/C(=C\c1ccc(Oc2cccc(F)c2F)c(C(F)(F)F)c1N1CCCC2(CCN(CC3CC3)CC2)C1)c1ccn(-c2ccnnc2)n1 :: 6.70 to 7.70
OCCN1CCC2(CCCN(c3c(/C=C(\F)c4csc(-c5ccnnc5)n4)ccc(Oc4ccccn4)c3C(F)(F)F)C2)CC1 :: ≥ 7.70
F/C(=C\c1ccc(Oc2cccc(F)c2F)c(Cl)c1N1CCCC2(CCN(CC3CC3)CC2)C1)c1ccn(-c2ccnnc2)n1 :: ≥ 7.70
CCN1CC2(CCCN(c3c(/C=C(\F)c4ccn(-c5ccnnc5)n4)ccc(Oc4cccc(F)c4F)c3C(F)(F)F)C2)C1 :: ≥ 7.70

Please turn your attention to the following entry.
For "OCCN1CCC2(CCCN(c3c(/C=C(\F)c4csc(-c5ccnnc5)n4)ccc(Oc4ccccc4)c3C(F)(F)F)C2)CC1" , what is its reported pIC50?
6.70 to 7.70
